For each of the compounds below, state its ΔTm.
Tested on: DNA
experiment.summary: Binding affinity to calf thymus DNA assessed as thermal denaturation temperature at 20 uM after 4 hrs
Type: nucleic-acid assay
assay.conditions: Bos taurus

## Input Request the reported ΔTm associated with `CCN(CC)c1ccc2cc(C(=O)NCCCOc3cc4c(cc3OC)C(=O)N3CCC[C@H]3C=N4)c(=O)oc2c1`
## Output 3.4 °C

## Input Request the reported ΔTm associated with `CCN(CC)c1ccc2cc(C(=O)NCCCCCCCCOc3cc4c(cc3OC)C(=O)N3CCC[C@H]3C=N4)c(=O)oc2c1`
## Output 1.4 °C

## Input Request the reported ΔTm associated with `CCOC(=O)c1cc2ccc(N(CC)CC)cc2oc1=O`
## Output 0.2 °C

## Input Request the reported ΔTm associated with `COc1cc2c(cc1O)N=C[C@@H]1CCCN1C2=O`
## Output 0.5 °C

## Input Request the reported ΔTm associated with `CCN(CC)c1ccc2cc(C(=O)NCCCCNC(=O)CCOc3cc4c(cc3OC)C(=O)N3CCC[C@H]3C=N4)c(=O)oc2c1`
## Output 0.7 °C

Taken from ChEMBL document CHEMBL1142375.
